For each entry below, report its residual activity value.
- Test system: MARK1 (human), Q9P0L2 [V16E/T20S]
- Sequence (Q9P0L2 whole entry, looked up, stated change not applied): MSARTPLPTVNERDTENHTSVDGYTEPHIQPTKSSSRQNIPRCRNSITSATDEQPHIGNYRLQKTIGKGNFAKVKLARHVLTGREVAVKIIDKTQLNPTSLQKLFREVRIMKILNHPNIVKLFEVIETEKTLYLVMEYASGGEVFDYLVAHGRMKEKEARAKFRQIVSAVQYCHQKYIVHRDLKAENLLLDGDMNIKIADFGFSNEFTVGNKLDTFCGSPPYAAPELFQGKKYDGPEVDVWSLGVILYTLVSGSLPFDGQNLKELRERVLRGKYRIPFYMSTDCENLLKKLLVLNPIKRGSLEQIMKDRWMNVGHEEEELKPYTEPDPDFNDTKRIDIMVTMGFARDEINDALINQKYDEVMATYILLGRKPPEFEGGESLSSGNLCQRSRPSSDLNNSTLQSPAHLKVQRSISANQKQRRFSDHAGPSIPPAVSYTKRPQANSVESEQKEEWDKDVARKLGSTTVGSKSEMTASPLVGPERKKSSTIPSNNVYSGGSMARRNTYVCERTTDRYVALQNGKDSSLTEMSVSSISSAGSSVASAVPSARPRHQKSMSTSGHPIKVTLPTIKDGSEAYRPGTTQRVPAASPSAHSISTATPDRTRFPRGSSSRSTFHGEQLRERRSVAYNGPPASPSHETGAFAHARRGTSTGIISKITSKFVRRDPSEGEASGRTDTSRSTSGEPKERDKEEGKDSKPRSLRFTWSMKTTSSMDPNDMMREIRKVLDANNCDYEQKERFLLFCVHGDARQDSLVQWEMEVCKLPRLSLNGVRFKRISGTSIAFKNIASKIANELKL
- TEST: radiometric filter-binding kinase assay, Kinaseprofiler
- CONDITION_DESCRIPTION: compound 1.0 µM; ATP 10 µM
Numbers only, in %.

Can you look up the measured residual activity of `O=C1Nc2ccccc2/C1=C1\Nc2ccccc2\C1=N/O` for me?
37

Please give residual activity, item by item, for the list that follows.
1. CN[C@@H]1C[C@H]2O[C@@](C)([C@@H]1OC)n1c3ccccc3c3c4c(c5c6ccccc6n2c5c31)C(=O)NC4
2. O=C1c2ccccc2-c2n[nH]c3cccc1c23
3. COC(=O)[C@]1(O)C[C@@H]2O[C@@]1(C)n1c3ccccc3c3c4c(c5c6ccccc6n2c5c31)C(=O)NC4

[0, 38, 0]
